Source: patent US10738031B2

- target.or.system: human Orexin 1 receptor (Homo sapiens, UniProt O43613)
- Construct: stably expressing the full-length human Orexin 1 receptor; expressed in transfected cells; host or cells: CHO-K1 (CHO-K1/hOX1), co-expressing aequorin
- Sequence (O43613 whole entry): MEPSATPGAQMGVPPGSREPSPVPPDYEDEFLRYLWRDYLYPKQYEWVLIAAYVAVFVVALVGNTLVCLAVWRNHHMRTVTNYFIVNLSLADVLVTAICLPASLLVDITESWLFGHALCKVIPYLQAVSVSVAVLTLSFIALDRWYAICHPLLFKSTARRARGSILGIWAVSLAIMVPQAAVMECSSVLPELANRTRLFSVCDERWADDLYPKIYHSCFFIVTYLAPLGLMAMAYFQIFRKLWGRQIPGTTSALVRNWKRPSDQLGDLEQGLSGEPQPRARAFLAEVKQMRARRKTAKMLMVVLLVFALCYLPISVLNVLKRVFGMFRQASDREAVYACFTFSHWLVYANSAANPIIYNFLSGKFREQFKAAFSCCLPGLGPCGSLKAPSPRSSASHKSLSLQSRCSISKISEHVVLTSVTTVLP
- test.summary: Assay A: OX1R IP1 (in vitro OX1R potency)
- Type: cell-based
- cond: Table 3; Orexin A concentration 0.5 nM
Cut-off 2 nM on Kb: below means TRUE, at or above means FALSE.

                                   molecule                          target_or_system  assigned_category
0  CCN(C(=O)c1cc(F)cnc1-n1nccn1)[C@@H](C)COc1ccc(Cl)cn1 [Example 22]  human Orexin 1 receptor (Homo sapiens, UniProt O43613)              FALSE
1  CCN(C(=O)c1cnccc1-n1nccn1)[C@@H](C)COc1ccc(Cl)cn1 [Example 48]  human Orexin 1 receptor (Homo sapiens, UniProt O43613)              FALSE

Quick check: Kb of CCN(C(=O)c1cnccc1-n1nccn1)[C@@H](C)COc1ccc(C(F)(F)F)cn1 [Example 36] under 2 nM?
TRUE

Record: CCN(C(=O)c1ccc(C)nc1-n1nccn1)[C@@H](C)COc1ncc(C(F)(F)F)cc1F [Example 60]
TRUE

Record: CCN(C(=O)c1nc(C)ccc1-n1nccn1)[C@@H](C)COc1ncc(C(F)(F)F)cc1F [Example 12]
TRUE

Record: CCN(C(=O)c1cccnc1-n1nccn1)[C@@H](C)COc1ccc(C(F)(F)F)cn1 [Example 61]
FALSE

Record: CCN(C(=O)c1cnccc1-n1nccn1)[C@@H](C)COc1ncc(C(F)(F)F)cc1F [Example 42]
FALSE

Record: CCN(C(=O)c1cnc(C)nc1-c1ccccc1)[C@@H](C)COc1ncc(C(F)(F)F)cn1 [Example 11]
TRUE

Record: CCN(C(=O)c1cc(C(F)(F)F)cnc1-n1cccn1)[C@@H](C)COc1ccc(C(F)(F)F)cn1 [Example 3]
TRUE
